Molecular target: human KDR (Homo sapiens, UniProt P35968)
Sequence (P35968 20-1356): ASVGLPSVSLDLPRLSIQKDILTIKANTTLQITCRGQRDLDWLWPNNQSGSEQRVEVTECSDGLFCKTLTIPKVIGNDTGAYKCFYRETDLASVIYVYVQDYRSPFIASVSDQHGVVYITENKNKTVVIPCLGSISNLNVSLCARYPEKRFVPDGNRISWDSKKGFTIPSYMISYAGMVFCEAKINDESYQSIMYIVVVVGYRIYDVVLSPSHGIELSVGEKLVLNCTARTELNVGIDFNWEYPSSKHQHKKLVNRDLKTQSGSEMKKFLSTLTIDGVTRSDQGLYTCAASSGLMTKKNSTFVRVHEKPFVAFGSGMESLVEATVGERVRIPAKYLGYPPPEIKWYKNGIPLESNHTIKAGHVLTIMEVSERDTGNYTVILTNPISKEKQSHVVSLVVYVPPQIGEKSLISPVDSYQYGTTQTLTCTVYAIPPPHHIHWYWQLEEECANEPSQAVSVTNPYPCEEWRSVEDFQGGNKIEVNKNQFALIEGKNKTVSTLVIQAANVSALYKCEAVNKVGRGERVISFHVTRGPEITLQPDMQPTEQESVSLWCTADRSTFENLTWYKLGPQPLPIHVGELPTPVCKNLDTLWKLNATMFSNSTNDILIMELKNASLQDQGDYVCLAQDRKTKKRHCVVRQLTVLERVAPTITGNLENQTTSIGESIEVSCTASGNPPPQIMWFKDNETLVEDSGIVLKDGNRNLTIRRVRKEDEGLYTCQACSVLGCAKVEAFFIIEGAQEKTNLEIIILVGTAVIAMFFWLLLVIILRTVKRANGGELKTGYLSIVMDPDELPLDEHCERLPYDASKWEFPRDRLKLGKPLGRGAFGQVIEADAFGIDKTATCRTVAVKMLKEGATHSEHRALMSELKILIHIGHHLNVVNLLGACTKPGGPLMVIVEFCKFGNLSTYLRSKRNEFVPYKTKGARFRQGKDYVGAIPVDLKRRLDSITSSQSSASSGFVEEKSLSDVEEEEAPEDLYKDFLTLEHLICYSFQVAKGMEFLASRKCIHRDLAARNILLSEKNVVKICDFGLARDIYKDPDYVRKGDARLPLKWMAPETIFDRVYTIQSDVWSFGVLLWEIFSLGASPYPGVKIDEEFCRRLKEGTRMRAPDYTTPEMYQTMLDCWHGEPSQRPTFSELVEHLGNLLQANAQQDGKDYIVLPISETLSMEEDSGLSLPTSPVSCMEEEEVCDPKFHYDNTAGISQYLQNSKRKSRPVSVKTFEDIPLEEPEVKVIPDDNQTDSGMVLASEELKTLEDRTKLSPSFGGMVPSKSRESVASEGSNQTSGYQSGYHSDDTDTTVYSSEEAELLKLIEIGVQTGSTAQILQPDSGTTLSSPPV
Test: Inhibitory activity against KDR phosphorylation by ELISA
Settings: NIH 3T3 cells transfected with human KDR, VEGF 100 ng/ml
pIC50: −log10 of the molar value.
reported-metric: pIC50

compound-string	limit-qualifier	measured-value
COc1cc2ncnc(Oc3ccc(NC(=O)Nc4ccc(F)cc4)c(C)c3)c2cc1OC	=	8.70
COc1cc2c(Oc3ccc(NC(=O)N(C)C)c(Cl)c3)ncnc2cc1OCc1ccncc1	<	6.00
COc1cc2c(Oc3ccc(NC(=O)Nc4ccc(F)cc4F)c(Cl)c3)ncnc2cc1OCc1ccncc1	=	8.41
CCCNC(=O)Nc1ccc(Oc2ccnc3cc(OCCN(CCO)CCO)c(OC)cc23)cc1Cl	=	8.68
CCCNC(=O)Nc1ccc(Oc2ccnc3cc(OCCn4ccnc4)c(OC)cc23)cc1Cl	=	9.00
COc1cc2ncnc(Oc3ccc(NC(=O)NCc4ccc(F)cc4F)cc3)c2cc1OC	=	7.49
CCCCN(C)C(=O)Nc1ccc(Oc2ncnc3cc(OC)c(OC)cc23)cc1Cl	<	6.00
CCCNC(=O)Nc1cc(C)c(Oc2ccnc3cc(OCCCN4CCN(C)CC4)c(OC)cc23)cc1C	=	8.43
CCCNC(=O)Nc1ccc(Oc2ncnc3cc(OC)c(OCc4ccccn4)cc23)cc1Cl	=	7.40
C#CCNC(=O)Nc1ccc(Oc2ncnc3cc(OC)c(OC)cc23)cc1	=	7.19
CCCNC(=O)Nc1ccc(Oc2ncnc3cc(OC)c(OCCCN4CCOCC4)cc23)cc1Cl	=	7.82
COc1cc2c(Oc3ccc(NC(=O)Nc4ccc(F)cc4F)c(Cl)c3)ccnc2cc1OCCN(C)CCO	=	8.68
COc1ccccc1NC(=O)Nc1ccc(Oc2ncnc3cc(OC)c(OC)cc23)cc1Cl	=	8.82
CCCNC(=O)Nc1ccc(Oc2ccnc3cc(OCCCn4ccnc4)c(OC)cc23)cc1Cl	=	8.82
CCCNC(=O)Nc1ccc(Oc2ncnc3cc(OCCCN4CCCCC4)c(OC)cc23)cc1Cl	=	9.00
CCNC(=O)Nc1ccc(Oc2ncnc3cc(OCCCN4CCCCC4)c(OC)cc23)cc1Cl	=	9.30
CCCCNC(=O)Nc1ccc(Oc2ncnc3cc(OC)c(OC)cc23)cc1F	=	7.62

====

Target: human KDR (Homo sapiens)
Construct: expressed in transfected cells; host or cells: NIH 3T3 cells (Sawano A et al., Cell Growth & Differentiation 7, 213-221 (1996))
Experiment: Inhibitory activity against KDR phosphorylation by ELISA
Format: cell-based
Conditions: NIH 3T3 cells transfected with human KDR, VEGF 100 ng/ml
# thresholds on IC50 define classes: lower bin = under 3 nM, middle bin = from 3 nM up to 10 nM, upper bin = 10 nM and over

molecule	label
CCN(CC)C(=O)Nc1ccc(Oc2ncnc3cc(OCCn4ccnn4)c(OC)cc23)cc1Cl [Example 131]	upper bin
C#CCNC(=O)Nc1ccc(Oc2ncnc3cc(OC)c(OC)cc23)cc1F [Example 92]	upper bin
CCCNC(=O)Nc1ccc(Oc2ccnc3cc(OCc4ccncc4)c(OC)cc23)cc1Cl [Example 143]	middle bin
COc1cc2c(Oc3cc(C)c(NC(=O)Nc4ccc(F)cc4F)cc3C)ccnc2cc1OCCn1ccnn1 [Example 177]	lower bin
COc1cc2ncnc(Oc3ccc(NC(=O)Nc4ccc(F)cc4F)c(C)c3)c2cc1OC [Example 104]	middle bin
COC(=O)COc1cc2ncnc(Oc3ccc(NC(=O)N(C)C)c(Cl)c3)c2cc1OC [Example 181]	upper bin
CCCNC(=O)Nc1ccc(Oc2ncnc3cc(OC)c(OCCN4CCN(C)CC4)cc23)cc1Cl [Example 136]	upper bin
COc1cc2ncnc(Oc3ccc(NC(=O)Nc4ccc(F)cc4)c(Cl)c3)c2cc1OC [Example 85]	lower bin
COc1cc2c(Oc3ccc(NC(=O)Nc4ccc(F)cc4F)c(Cl)c3)ccnc2cc1OCc1cccnc1 [Example 169]	middle bin
C#CCNC(=O)Nc1ccc(Oc2ncnc3cc(OC)c(OC)cc23)cc1Cl [Example 81]	middle bin
COc1cc2c(Oc3ccc(NC(=O)N(C)C)c(Cl)c3)ncnc2cc1OCCCN1CCN(C)CC1 [Example 182]	upper bin
CCCNC(=O)Nc1ccc(Oc2ccnc3cc(OCCn4ccnn4)c(OC)cc23)cc1Cl [Example 145]	lower bin
COc1cc2ncnc(Oc3ccc(NC(=O)Nc4ccccc4C)cc3)c2cc1OC [Example 74]	upper bin
COc1cc2ncnc(Oc3ccc(NC(=O)Nc4ccc(F)cc4F)cc3C)c2cc1OC [Example 99]	upper bin
COc1cc2ncnc(Oc3ccc(NC(=O)NCc4ccc(F)cc4F)c(F)c3)c2cc1OC [Example 93]	upper bin
CCCNC(=O)Nc1ccc(Oc2ncnc3cc(OC)c(OCCCN4CCN(C)CC4)cc23)cc1Cl [Example 137]	upper bin
CCCCCNC(=O)Nc1ccc(Oc2ncnc3cc(OC)c(OC)cc23)cc1 [Example 66]	upper bin
CCCNC(=O)Nc1ccc(Oc2ncnc3cc(OCCCO)c(OC)cc23)cc1Cl [Example 121]	upper bin
COc1cc2ncnc(Oc3ccc(NC(=O)Nc4ccc(F)cc4)cc3C)c2cc1OC [Example 100]	upper bin
COc1cc2c(Oc3ccc(NC(=O)Nc4ccc(F)cc4F)c(Cl)c3)ncnc2cc1OCCCN1CCN(C)CC1 [Example 164]	lower bin
CCCNC(=O)Nc1ccc(Oc2ncnc3cc(OCCN4CCOCC4)c(OC)cc23)cc1Cl [Example 120]	middle bin
CCN(CC)C(=O)Nc1ccc(Oc2ncnc3cc(OCc4ccncc4)c(OC)cc23)cc1Cl [Example 126]	upper bin
COc1cc2ncnc(Oc3ccc(NC(=O)Nc4ccccc4C)c(F)c3)c2cc1OC [Example 95]	middle bin
CCCNC(=O)Nc1ccc(Oc2ccnc3cc(OCCCN(CCO)CCO)c(OC)cc23)cc1Cl [Example 156]	lower bin
CCCCCNC(=O)Nc1ccc(Oc2ncnc3cc(OC)c(OC)cc23)cc1Cl [Example 78]	middle bin
CCCNC(=O)Nc1ccc(Oc2ccnc3cc(OCCCN4CCOCC4)c(OC)cc23)cc1Cl [Example 151]	lower bin
C=CCNC(=O)Nc1ccc(Oc2ncnc3cc(OC)c(OC)cc23)cc1Cl [Example 80]	lower bin
CCC(C)NC(=O)Nc1ccc(Oc2ncnc3cc(OC)c(OC)cc23)cc1F (stereo not drawn) [Example 90]	upper bin
CCCNC(=O)Nc1ccc(Oc2ccnc3cc(OCCN(C)CCO)c(OC)cc23)cc1Cl [Example 150]	lower bin
CCCNC(=O)Nc1ccc(Oc2ncnc3cc(OCCCCCn4ccnn4)c(OC)cc23)cc1Cl [Example 125]	lower bin
CCCNC(=O)Nc1ccc(Oc2ccnc3cc(OCCCCn4ccnn4)c(OC)cc23)cc1Cl [Example 158]	lower bin
C=CCNC(=O)Nc1ccc(Oc2ncnc3cc(OC)c(OC)cc23)cc1 [Example 68]	upper bin
COc1cc2c(Oc3ccc(NC(=O)Nc4ccc(F)cc4F)c(Cl)c3)ccnc2cc1OCc1ccncc1 [Example 186]	middle bin

====

Catalogue of IC50 readings, one per entry.
Biological target: human KDR (Homo sapiens, UniProt P35968)
Experiment: Inhibitory activity against KDR phosphorylation by ELISA
Conditions: NIH 3T3 cells transfected with human KDR, VEGF 100 ng/ml
Protocol: Measurement of Inhibitory Activity Against KDR Phosphorylation by ELISA NIH 3T3 cells (Sawano A et al., Cell Growth & Differentation, 7, 213–221 (1996), “Flt-1 but not KDR/Flk-1 tyrosine kinase is a receptor for placenta growth factor, which is related to vascular endothelial growth factor”) prepared by transfection of human KDR were cultured in a DMEM medium containing 10% fetal calf serum (purchased from GIBCO BRL) within a 5% carbon dioxide incubator until 50 to 70% confluent. […]

compound-string	IC50 (nM)
CCCCNC(=O)Nc1ccc(Oc2ncnc3cc(OC)c(OC)cc23)cc1C	78
CCCNC(=O)Nc1ccc(Oc2ncnc3cc(OCCCSc4ccncc4)c(OC)cc23)cc1Cl	8.3
CCCNC(=O)Nc1ccc(Oc2ccnc3cc(OCCO)c(OC)cc23)cc1Cl	1.6

====

System: Human glioma cells GL07
Assay: Antitumor effect on human glioma cells (GL07) transplanted into nude mice
Assay type: in vivo
Details: Mus musculus, Glioma cell, 216 h, GL07, oral, 20 mg/kg once a day for 9 days, read-out: TGIR, % (tumor growth inhibition rate)
Assign class by inhibition in vivo at 20 mg/kg: not lower than 50% means Y; lower than 50% means N.

compound-string	label
CCCNC(=O)Nc1ccc(Oc2ncnc3cc(OCCCN4CCOCC4)c(OC)cc23)cc1Cl	N
COc1cc2c(Oc3ccc(NC(=O)Nc4ccc(F)cc4F)c(Cl)c3)ccnc2cc1OCCN(C)CCO	N
CCCNC(=O)Nc1ccc(Oc2ncnc3cc(OCCCN4CCN(C)CC4)c(OC)cc23)cc1Cl	N
COc1cc2ncnc(Oc3ccc(NC(=O)N(C)c4ccc(Cl)cc4)c(Cl)c3)c2cc1OC	Y
CCCNC(=O)Nc1ccc(Oc2ccnc3cc(OCCCn4ccnn4)c(OC)cc23)cc1Cl	Y
CCCNC(=O)Nc1ccc(Oc2ccnc3cc(OCc4cccnc4)c(OC)cc23)cc1Cl	N
CCNC(=O)Nc1ccc(Oc2ncnc3cc(OCCCN4CCCCC4)c(OC)cc23)cc1Cl	Y
CCCN(CC)C(=O)Nc1ccc(Oc2ncnc3cc(OC)c(OC)cc23)cc1Cl	Y

Reference for the values: patent US7169789B2
